Molecular target: T1, EsCas13d, nuclease-dead (Eubacterium siraeum, UniProt B0MS50, R295A;H300A;R849A;H854A)
T1 sequence: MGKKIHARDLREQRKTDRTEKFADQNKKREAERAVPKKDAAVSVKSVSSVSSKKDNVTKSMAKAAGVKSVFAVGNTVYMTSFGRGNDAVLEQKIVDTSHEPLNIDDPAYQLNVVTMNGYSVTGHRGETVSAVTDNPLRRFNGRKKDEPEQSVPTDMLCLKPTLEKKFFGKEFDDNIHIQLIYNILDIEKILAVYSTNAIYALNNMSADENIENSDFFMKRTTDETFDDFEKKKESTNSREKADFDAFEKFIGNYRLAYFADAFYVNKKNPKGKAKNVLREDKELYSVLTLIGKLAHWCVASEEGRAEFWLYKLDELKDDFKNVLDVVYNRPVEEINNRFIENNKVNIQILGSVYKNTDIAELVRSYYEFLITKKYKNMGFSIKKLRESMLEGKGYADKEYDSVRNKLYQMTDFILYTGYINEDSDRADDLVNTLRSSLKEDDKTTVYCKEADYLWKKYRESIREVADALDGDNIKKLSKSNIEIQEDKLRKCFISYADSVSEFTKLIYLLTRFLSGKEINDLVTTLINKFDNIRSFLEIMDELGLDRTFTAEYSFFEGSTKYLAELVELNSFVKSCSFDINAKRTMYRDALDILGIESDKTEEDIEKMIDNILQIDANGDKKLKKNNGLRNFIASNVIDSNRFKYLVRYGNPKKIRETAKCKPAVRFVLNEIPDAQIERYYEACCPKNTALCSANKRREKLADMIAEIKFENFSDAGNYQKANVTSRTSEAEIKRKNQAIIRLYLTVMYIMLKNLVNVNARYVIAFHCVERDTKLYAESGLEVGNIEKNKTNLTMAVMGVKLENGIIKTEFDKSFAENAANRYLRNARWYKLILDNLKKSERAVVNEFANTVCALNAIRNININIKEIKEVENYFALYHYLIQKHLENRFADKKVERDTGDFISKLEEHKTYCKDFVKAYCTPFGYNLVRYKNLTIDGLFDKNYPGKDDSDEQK
Assay: crRNA (strand 1, pre-loaded); Mg2+; 40 mM Tris-HCl pH 7.5, 150 mM NaCl, 6 mM MgCl2, 1 mM DTT, 0.1% Tween-20, 0.2 mg/ml BSA; 25 C; 10 min per concentration, then washed
Settings: tags: His6-TwinStrep-SUMO cleaved; N-terminal SNAP kept (SNAP-Surface 488); label: 3' end held by stalled T7 RNA polymerase
RESULT_TYPE: Kd (nM)
Answers are plain numbers, in nM.

BINDER	RESULT_TYPE	REPORTED
target 1 insA 3' of 19,insG 3' of 7 (mixed) RNA 1: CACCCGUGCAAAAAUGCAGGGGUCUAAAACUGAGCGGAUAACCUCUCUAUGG RNA 2: GGGAAUGGAUCCACAUCUACGAAUUCGUACCAUAAGAGAGGUUAUCGCGCUCACCGAGAUCGGAAGAGCACACGU	Kd	16.3

Consider the record given below.
Q. Request the reported Kd associated with target 1 insA 3' of 21,insU 3' of 9 (mixed) RNA 1: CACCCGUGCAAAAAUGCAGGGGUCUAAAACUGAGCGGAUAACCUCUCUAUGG RNA 2: GGGAAUGGAUCCACAUCUACGAAUUCGUACCAAUAGAGAGGUUAUUCCGCUCACCGAGAUCGGAAGAGCACACGU
A. 24.4
